- TARGET DESC: CDK2/Cyclin A complex (Homo sapiens, UniProt P24941)
- EXPERIMENT: CDK2/Cyclin A assay
- Type: biochemical
- RECORDED CONDITIONS: Table 3
Friendly reminder: Ki below 0.2 µM is y, at or above is n.

Take the compound Nc1nc(Nc2ccc(S(N)(=O)=O)cc2)sc1-c1nc(C(=O)Nc2ccccc2)cs1 [N(4)] and say whether its Ki is less than 0.2 µM. y

Now give it for CC(=O)Nc1nc(N)c(-c2nc(C(=O)c3ccccc3)cs2)s1 [F(16)] too. n

Now give it for CON(C)C(=O)c1csc(-c2sc(Nc3ccc(S(N)(=O)=O)cc3)nc2N)n1 [N(3)] too. y

Now give it for Nc1nc(Nc2ccc(S(N)(=O)=O)cc2)sc1-c1nc(C(=O)O)cs1 [N(1)] too. n

Now give it for CN(C)CCNC(=O)c1csc(-c2sc(Nc3ccc(S(N)(=O)=O)cc3)nc2N)n1 [N(2)] too. y
